Each entry below carries its recorded Bliss excess.
system: NCI-H446 (Small Cell Lung Carcinoma); experiment: Bliss excess, mean over the matrix (fraction); higher = more synergy
Respond using a number only.

molecule	Bliss excess
CC(=O)c1c(C)c2cnc(Nc3ccc(N4CCNCC4)cn3)nc2n(C2CCCC2)c1=O [Palbociclib] + CN(CC[C@H](CSC1=CC=CC=C1)NC2=C(C=C(C=C2)S(=O)(=O)NC(=O)C3=CC=C(C=C3)N4CCC(CC4)[C@H](C5=CC=CC=C5C6=CC=C(C=C6)Cl)O)S(=O)(=O)C(F)(F)F)CCO [AZD4320] (first compound max 10 µM, 7x7, partner max 1 µM)	-0.0065
CC(=O)c1c(C)c2cnc(Nc3ccc(N4CCNCC4)cn3)nc2n(C2CCCC2)c1=O [Palbociclib] + Cc1c2c(nn1C)CSCc1cc(n(C)n1)CSc1cc(c3ccccc3c1)OCCCc1c(C(=O)O)n(C)c3c-2c(Cl)ccc13 [AZD5991] (first compound max 10 µM, 7x7, partner max 1 µM)	0.0062
NC1(C(=O)N[C@@H](CCO)c2ccc(Cl)cc2)CCN(c2ncnc3[nH]ccc23)CC1 [Capivasertib] + CC(C)n1c(=O)n(C)c2cnc3cc(F)c(-c4ccc(OCCCN5CCCCC5)nc4)cc3c21 [AZD1390] (first compound max 10 µM, 7x7, partner max 0.3 µM)	-0.0866
CC1(C)CCC(CN2CCN(c3ccc(C(=O)NS(=O)(=O)c4ccc(NCC5CCOCC5)c([N+](=O)[O-])c4)c(Oc4cnc5[nH]ccc5c4)c3)CC2)=C(c2ccc(Cl)cc2)C1 [Venetoclax] + CN(C)CCCOc1ccc(-c2ccc3ncc4c(c3c2)n(C2CCOCC2)c(=O)n4C)cn1 [AZD0156] (first compound max 1 µM, 7x7, partner max 1 µM)	0.0143

GET /values?readout=Bliss excess&item= C=CCn1c(=O)c2cnc(Nc3ccc(N4CCN(C)CC4)cc3)nc2n1-c1cccc(C(C)(C)O)n1 [AZD1775] + C[C@@H]1COCCN1C2=NC(=NC(=C2)C3(CC3)[S@](=N)(=O)C)C4=C5C=CNC5=NC=C4 [AZD6738] (first compound max 1 µM, partner max 10 µM)
0.0581

# lookup: Bliss excess of CS(=O)(=O)CCNCc1ccc(-c2ccc3ncnc(Nc4ccc(OCc5cccc(F)c5)c(Cl)c4)c3c2)o1 [Lapatinib] + C[C@@H](Oc1cc(-c2cnn(C3CCNCC3)c2)cnc1N)c1c(Cl)ccc(F)c1Cl [Crizotinib] (first compound max 10 µM, 7x7, partner max 10 µM)
-0.0344

Fill in: Bliss excess of CC1(C)CCC(CN2CCN(c3ccc(C(=O)NS(=O)(=O)c4ccc(NCC5CCOCC5)c([N+](=O)[O-])c4)c(Oc4cnc5[nH]ccc5c4)c3)CC2)=C(c2ccc(Cl)cc2)C1 [Venetoclax] + COc1cc(Nc2ncc3c(n2)-c2ccc(Cl)cc2C(c2c(F)cccc2OC)=NC3)ccc1C(=O)O [Alisertib] (first compound max 1 µM, 7x7, partner max 10 µM) is ___
-0.0775

----------
system: OVMIU (Ovarian Carcinoma); assay: combination Emax (second highest fraction inhibited in the dose matrix, 72 h); higher = more inhibition; extreme values may be limits of the assay
assay.readout: combination Emax
Field format: numeric only.

Here are 2 compounds together with their reported answers.
compound	combination Emax
N#Cc1cnc(Nc2cc(NC[C@H]3CNCCO3)c(C(F)(F)F)cn2)cn1 [SRA737] + O=c1[nH]cc(F)c(=O)[nH]1 [5-Fluorouracil] (first compound max 10 µM, 7x7, partner max 20 µM)	0.413
C=CCn1c(=O)c2cnc(Nc3ccc(N4CCN(C)CC4)cc3)nc2n1-c1cccc(C(C)(C)O)n1 [AZD1775] + C[C@@H]1COCCN1C2=NC(=NC(=C2)C3(CC3)[S@](=N)(=O)C)C4=C5C=CNC5=NC=C4 [AZD6738] (first compound max 1 µM, partner max 10 µM)	0.731

What value of combination Emax has been reported for the following compound? Cc1c2c(nn1C)CSCc1cc(n(C)n1)CSc1cc(c3ccccc3c1)OCCCc1c(C(=O)O)n(C)c3c-2c(Cl)ccc13 [AZD5991] + C=CCn1c(=O)c2cnc(Nc3ccc(N4CCN(C)CC4)cc3)nc2n1-c1cccc(C(C)(C)O)n1 [AZD1775] (first compound max 1 µM, partner max 1 µM)
0.635

Need combination Emax, item CN(C)CCCOc1ccc(-c2ccc3ncc4c(c3c2)n(C2CCOCC2)c(=O)n4C)cn1 [AZD0156] + CCN(CCO)CCCOc1ccc2c(Nc3cc(CC(=O)Nc4cccc(F)c4)[nH]n3)ncnc2c1 [AZD2811] (first compound max 1 µM, 7x7, partner max 1 µM)
0.144

----------
test system: GP5d (Colorectal Carcinoma); assay: Bliss excess, mean over the matrix (fraction); higher = more synergy
Respond with TRUE for Bliss excess values of -0.03 and above, FALSE for values below.

compound	target	assigned.class
COc1nnc2ccc(N3CCC(c4ccc(OCCN5CCN(C)C(=O)[C@H]5C)cc4)CC3)nn12 [AZD5153] + Cc1c2c(nn1C)CSCc1cc(n(C)n1)CSc1cc(c3ccccc3c1)OCCCc1c(C(=O)O)n(C)c3c-2c(Cl)ccc13 [AZD5991] (first compound max 1 µM, 7x7, partner max 1 µM)	GP5d (Colorectal Carcinoma)	FALSE
Cc1nc(Nc2ncc(C(=O)Nc3c(C)cccc3Cl)s2)cc(N2CCN(CCO)CC2)n1 [Dasatinib] + CC(=O)Nc1cccc(-n2c(=O)n(C3CC3)c(=O)c3c(Nc4ccc(I)cc4F)n(C)c(=O)c(C)c32)c1 [Trametinib] (first compound max 2 µM, 7x7, partner max 1 µM)	GP5d (Colorectal Carcinoma)	TRUE
CC1(C)CCC(CN2CCN(c3ccc(C(=O)NS(=O)(=O)c4ccc(NCC5CCOCC5)c([N+](=O)[O-])c4)c(Oc4cnc5[nH]ccc5c4)c3)CC2)=C(c2ccc(Cl)cc2)C1 [Venetoclax] + C=CCn1c(=O)c2cnc(Nc3ccc(N4CCN(C)CC4)cc3)nc2n1-c1cccc(C(C)(C)O)n1 [AZD1775] (first compound max 1 µM, partner max 1 µM)	GP5d (Colorectal Carcinoma)	FALSE
COc1nnc2ccc(N3CCC(c4ccc(OCCN5CCN(C)C(=O)[C@H]5C)cc4)CC3)nn12 [AZD5153] + C[C@@H]1COCCN1C2=NC(=NC(=C2)C3(CC3)[S@](=N)(=O)C)C4=C5C=CNC5=NC=C4 [AZD6738] (first compound max 1 µM, 7x7, partner max 10 µM)	GP5d (Colorectal Carcinoma)	FALSE
NC1(C(=O)N[C@@H](CCO)c2ccc(Cl)cc2)CCN(c2ncnc3[nH]ccc23)CC1 [Capivasertib] + CCN(CCO)CCCOc1ccc2c(Nc3cc(CC(=O)Nc4cccc(F)c4)[nH]n3)ncnc2c1 [AZD2811] (first compound max 10 µM, 7x7, partner max 1 µM)	GP5d (Colorectal Carcinoma)	FALSE
Cn1cnc2c(F)c(Nc3ccc(Br)cc3Cl)c(C(=O)NOCCO)cc21 [Selumetinib] + C[C@@H]1COCCN1C2=NC(=NC(=C2)C3(CC3)[S@](=N)(=O)C)C4=C5C=CNC5=NC=C4 [AZD6738] (first compound max 10 µM, 7x7, partner max 10 µM)	GP5d (Colorectal Carcinoma)	TRUE
CC1(C)CCC(CN2CCN(c3ccc(C(=O)NS(=O)(=O)c4ccc(NCC5CCOCC5)c([N+](=O)[O-])c4)c(Oc4cnc5[nH]ccc5c4)c3)CC2)=C(c2ccc(Cl)cc2)C1 [Venetoclax] + Cc1cc2ncnn2cc1Nc1ncc2c(n1)n(C1CCOCC1)c(=O)n2C [AZD7648] (first compound max 1 µM, 7x7, partner max 10 µM)	GP5d (Colorectal Carcinoma)	TRUE
NC1(C(=O)N[C@@H](CCO)c2ccc(Cl)cc2)CCN(c2ncnc3[nH]ccc23)CC1 [Capivasertib] + C[C@@H]1COCCN1C2=NC(=NC(=C2)C3(CC3)[S@](=N)(=O)C)C4=C5C=CNC5=NC=C4 [AZD6738] (first compound max 10 µM, 7x7, partner max 10 µM)	GP5d (Colorectal Carcinoma)	FALSE
Cc1c2c(nn1C)CSCc1cc(n(C)n1)CSc1cc(c3ccccc3c1)OCCCc1c(C(=O)O)n(C)c3c-2c(Cl)ccc13 [AZD5991] + C=CCn1c(=O)c2cnc(Nc3ccc(N4CCN(C)CC4)cc3)nc2n1-c1cccc(C(C)(C)O)n1 [AZD1775] (first compound max 1 µM, partner max 1 µM)	GP5d (Colorectal Carcinoma)	TRUE
COc1cccc(OCCCN)c1-c1cc(Nc2cnc(C#N)cn2)n[nH]1 [Prexasertib] + C=CCn1c(=O)c2cnc(Nc3ccc(N4CCN(C)CC4)cc3)nc2n1-c1cccc(C(C)(C)O)n1 [AZD1775] (first compound max 1 µM, partner max 1 µM)	GP5d (Colorectal Carcinoma)	TRUE

Check if Bliss excess >= -0.03 (inclusive). Item: CC1(C)CCC(CN2CCN(c3ccc(C(=O)NS(=O)(=O)c4ccc(NCC5CCOCC5)c([N+](=O)[O-])c4)c(Oc4cnc5[nH]ccc5c4)c3)CC2)=C(c2ccc(Cl)cc2)C1 [Venetoclax] + COc1cc(Nc2ncc3c(n2)-c2ccc(Cl)cc2C(c2c(F)cccc2OC)=NC3)ccc1C(=O)O [Alisertib] (first compound max 1 µM, 7x7, partner max 10 µM)
TRUE

Could you please find out whether Cc1c2c(nn1C)CSCc1cc(n(C)n1)CSc1cc(c3ccccc3c1)OCCCc1c(C(=O)O)n(C)c3c-2c(Cl)ccc13 [AZD5991] + Cn1cnc2c(F)c(Nc3ccc(Br)cc3Cl)c(C(=O)NOCCO)cc21 [Selumetinib] (first compound max 1 µM, 7x7, partner max 3 µM) has Bliss excess that meets -0.03 or exceeds it?
TRUE

Textbook exercise: given the entry CCc1c2c(nc3ccc(O)cc13)-c1cc3c(c(=O)n1C2)COC(=O)[C@]3(O)CC [SN-38] + CN(C)CCCOc1ccc(-c2ccc3ncc4c(c3c2)n(C2CCOCC2)c(=O)n4C)cn1 [AZD0156] (first compound max 0.3 µM, 7x7, partner max 1 µM) , state whether its Bliss excess is greater than or equal to -0.03.
TRUE
